System: T1, human PD-L1-Fc mutant E58A (human)
T1 construct: Position 58 counts on native human PD-L1 (NP_054862.1); also called E58A mutant
T1 sequence (chain, as listed by the source E58A E58A limits assumed): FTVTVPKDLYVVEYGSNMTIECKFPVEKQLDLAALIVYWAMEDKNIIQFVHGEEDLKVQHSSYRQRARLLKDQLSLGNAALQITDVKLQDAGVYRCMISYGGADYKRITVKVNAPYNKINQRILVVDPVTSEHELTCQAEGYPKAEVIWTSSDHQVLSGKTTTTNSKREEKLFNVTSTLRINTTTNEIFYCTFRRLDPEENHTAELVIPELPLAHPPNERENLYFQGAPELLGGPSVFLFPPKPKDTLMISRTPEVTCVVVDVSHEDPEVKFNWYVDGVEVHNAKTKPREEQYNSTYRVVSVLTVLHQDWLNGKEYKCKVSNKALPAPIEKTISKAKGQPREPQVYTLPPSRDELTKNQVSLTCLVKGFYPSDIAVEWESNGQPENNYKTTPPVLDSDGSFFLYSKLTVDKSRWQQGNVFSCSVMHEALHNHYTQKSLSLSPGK
Assay Protocol: ELISA on captured PD-L1-Fc, as in Example 18A
Endpoint Label: % of binding of Ab to E58A mutant vs. that to WT PD-L1 (%)
Unit % implied. Number only.

Binder	Readout Units	Observed
18G4 (antibody, V domains shown, Mouse monoclonal from hybridoma; also called mouse monoclonal antibody 18G4) VH: QVQLQQPGTALVKPGASVKLSCKASGYTFSSYYIHWVKQRPGQGLEWIGNINPFNGGSIYNEKFKNKASLTVDTSSNTAYMQLSSLTSEDSAVYYCARWHFDYWGQGTSLTVSS VL: DIVMTQSPSSLAVTAGEKVTLKCKSSQSLLWSGNQNNYLSWYQQKQGQPPKLLIYGASIRESWVPDRFTGSGSGTDFTLTIGNVSAEDLAVYYCQHNHGSFLPYTFGGGTRLEIK	%	117
26F5 (antibody, V domains shown, Mouse monoclonal from hybridoma; also called mouse monoclonal antibody 26F5) VH: QVQLQQPGAELVKPGASVKLSCKASGYTFPSYWMHWMKQRPGQGLEWIGMIQPSTSGTIYNERFKNQVTLTVDKSSSTAYMQLSSQTSEDSAVYYCARGTGTVDYFDYWGQGTTLTVSS VL: DIVLTQSPASLAVSLGQRATISCRASESVDSYGNSFIHWYQQKPGQPPKLLIHRASNLESGIPATFSGSGSRTDFTLTINPVEADDVATYYCQQSKEDPYTFGGGTKLEIK	%	60.6
4B6 (antibody, V domains shown, Mouse monoclonal purified from hybridoma; also called mouse monoclonal antibody 4B6) VH: EVQLQQSGPELVKPGASVKISCKASGYVFTDYYMNWVKQSHGKSLEWIGDINPNNGGTSYNHKFKGKATVTVDKSSRTAYMELLSLTSEDSAVYYCVKWGDGPFAYWGQGTLVTVSA VL: DIVMTQSQKFMSTSVGDRVSITCKASQNVGAAVAWYQQKPGQSPKLLIYSASNRYTGVPDRFTGSGSGTDFTLTISNMQSEDLADYFCQQYSNYPTFGSGTKLGIK	%	69.6

Prompt: Sample 23A11-H3L5 (antibody, V domains shown, Human IgG1 constant region with N297A; biotinylated in the alanine-scan ELISA; also called 23A11-H3L5-bio; humanized 23A11) VH: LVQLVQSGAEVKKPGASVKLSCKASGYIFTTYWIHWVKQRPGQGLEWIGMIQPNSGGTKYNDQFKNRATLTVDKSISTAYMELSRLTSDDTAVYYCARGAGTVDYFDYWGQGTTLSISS VL: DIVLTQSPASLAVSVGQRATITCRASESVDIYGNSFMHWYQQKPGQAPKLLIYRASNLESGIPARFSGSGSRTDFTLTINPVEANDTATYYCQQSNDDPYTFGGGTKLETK — what was its % of binding of Ab to E58A mutant vs. that to WT PD-L1?
Completion: 8.3
